Each recorded value in this set is attributed to the supplement of paper PMC11246515.

sequences and their reported total protein half-life in vivo
- Assay Overview: total protein half-life in vivo (active degradation + dilution); higher = more stable protein
- Experimental Conditions: wild type E. coli NCM3722; growth: N-lim chemostat; doubling time 12 h
Measurement Type: total protein half-life in vivo (h)

[[record]]
seq_text = "MKGGKRVQTARPNRINGEIRAQEVRLTGLEGEQLGIVSLREALEKAEEAGVDLVEISPNAEPPVCRIMDYGKFLYEKSKSSKEQKKKQKVIQVKEIKFRPGTDEGDYQVKLRSLIRFLEEGDKAKITLRFRGREMAHQQIGMEVLNRVKDDLQELAVVESFPTKIEGRQMIMVLAPKKKQ [P0A707]"
measurement_type = "total protein half-life in vivo"
comparison_operator = "="
experimental_value = 10.9

[[record]]
seq_text = "MNNSAFTFQTLHPDTIMDALFEHGIRVDSGLTPLNSYENRVYQFQDEDRRRFVVKFYRPERWTADQILEEHQFALQLVNDEVPVAAPVAFNGQTLLNHQGFYFAVFPSVGGRQFEADNIDQMEAVGRYLGRMHQTGRKQLFIHRPTIGLNEYLIEPRKLFEDATLIPSGLKAAFLKATDELIAAVTAHWREDFTVLRLHGDCHAGNILWRDGPMFVDLDDARNGPAVQDLWMLLNGDKAEQRMQLETIIEAYEEFSEFDTAEIGLIEPLRAMRLVYYLAWLMRRWADPAFPKNFPWLTGEDYWLRQTATFIEQAKVLQEPPLQLTPMY [P0C0K3]"
measurement_type = "total protein half-life in vivo"
comparison_operator = "="
experimental_value = 6.67

[[record]]
seq_text = "MKPRQRQAAILEYLQKQGKCSVEELAQYFDTTGTTIRKDLVILEHAGTVIRTYGGVVLNKEESDPPIDHKTLINTHKKELIAEAAVSFIHDGDSIILDAGSTVLQMVPLLSRFNNITVMTNSLHIVNALSELDNEQTILMPGGTFRKKSASFHGQLAENAFEHFTFDKLFMGTDGIDLNAGVTTFNEVYTVSKAMCNAAREVILMADSSKFGRKSPNVVCSLESVDKLITDAGIDPAFRQALEEKGIDVIITGESNE"
measurement_type = "total protein half-life in vivo"
comparison_operator = "="
experimental_value = 13

[[record]]
seq_text = "MIISAASDYRAAAQRILPPFLFHYMDGGAYSEYTLRRNVEDLSEVALRQRILKNMSDLSLETTLFNEKLSMPVALAPVGLCGMYARRGEVQAAKAADAHGIPFTLSTVSVCPIEEVAPAIKRPMWFQLYVLRDRGFMRNALERAKAAGCSTLVFTVDMPTPGARYRDAHSGMSGPNAAMRRYLQAVTHPQWAWDVGLNGRPHDLGNISAYLGKPTGLEDYIGWLGNNFDPSISWKDLEWIRDFWDGPMVIKGILDPEDARDAVRFGADGIVVSNHGGRQLDGVLSSARALPAIADAVKGDIAILADSGIRNGLDVVRMIALGADTVLLGRAFLYALATAGQAGVANLLNLIEKEMKVAMTLTGAKSISEITQDSLVQGLGKELPAALAPMAKGNAA"
measurement_type = "total protein half-life in vivo"
comparison_operator = "="
experimental_value = 6.57

[[record]]
seq_text = "MSKKIAVLITDEFEDSEFTSPADEFRKAGHEVITIEKQAGKTVKGKKGEASVTIDKSIDEVTPAEFDALLLPGGHSPDYLRGDNRFVTFTRDFVNSGKPVFAICHGPQLLISADVIRGRKLTAVKPIIIDVKNAGAEFYDQEVVVDKDQLVTSRTPDDLPAFNREALRLLGA"
measurement_type = "total protein half-life in vivo"
comparison_operator = "="
experimental_value = 7.76

[[record]]
seq_text = "MKVMRTTVATVVAATLSMSAFSVFAEASLTGAGATFPAPVYAKWADTYQKETGNKVNYQGIGSSGGVKQIIANTVDFGASDAPLSDEKLAQEGLFQFPTVIGGVVLAVNIPGLKSGELVLDGKTLGDIYLGKIKKWDDEAIAKLNPGLKLPSQNIAVVRRADGSGTSFVFTSYLAKVNEEWKNNVGTGSTVKWPIGLGGKGNDGIAAFVQRLPGAIGYVEYAYAKQNNLAYTKLISADGKPVSPTEENFANAAKGADWSKTFAQDLTNQKGEDAWPITSTTFILIHKDQKKPEQGTEVLKFFDWAYKTGAKQANDLDYASLPDSVVEQVRAAWKTNIKDSSGKPLY [P0AG82]"
measurement_type = "total protein half-life in vivo"
comparison_operator = "="
experimental_value = 12.9

[[record]]
seq_text = "MQKIVIVANGAPYGSESLFNSLRLAIALREQESNLDLRLFLMSDAVTAGLRGQKPGEGYNIQQMLEILTAQNVPVKLCKTCTDGRGISTLPLIDGVEIGTLVELAQWTLSADKVLTF [P0AB52]"
measurement_type = "total protein half-life in vivo"
comparison_operator = "="
experimental_value = 10.1

[[record]]
seq_text = "MFSIQQPLLVFSDLDGTLLDSHSYDWQPAAPWLTRLREANVPVILCSSKTSAEMLYLQKTLGLQGLPLIAENGAVIQLAEQWQEIDGFPRIISGISHGEISLVLNTLREKEHFKFTTFDDVDDATIAEWTGLSRSQAALTQLHEASVTLIWRDSDERMAQFTARLNELGLQFMQGARFWHVLDASAGKDQAANWIIATYQQLSGKRPTTLGLGDGPNDAPLLEVMDYAVIVKGLNREGVHLHDEDPARVWRTQREGPEGWREGLDHFFSAR"
measurement_type = "total protein half-life in vivo"
comparison_operator = "="
experimental_value = 6.75

[[record]]
seq_text = "MTMSLEVFEKLEAKVQQAIDTITLLQMEIEELKEKNNSLSQEVQNAQHQREELERENNHLKEQQNGWQERLQALLGRMEEV [P0AF36]"
measurement_type = "total protein half-life in vivo"
comparison_operator = "="
experimental_value = 5.13

[[record]]
seq_text = "MAIRLYKLAVALGVFIVSAPAFSHGHHSHGKPLTEVEQKAANGVFDDANVQNRTLSDWDGVWQSVYPLLQSGKLDPVFQKKADADKTKTFAEIKDYYHKGYATDIEMIGIEDGIVEFHRNNETTSCKYDYDGYKILTYKSGKKGVRYLFECKDPESKAPKYIQFSDHIIAPRKSSHFHIFMGNDSQQSLLNEMENWPTYYPYQLSSEEVVEEMMSH"
measurement_type = "total protein half-life in vivo"
comparison_operator = ">"
experimental_value = 16

[[record]]
seq_text = "MNYQNDDLRIKEIKELLPPVALLEKFPATENAANTVAHARKAIHKILKGNDDRLLVVIGPCSIHDPVAAKEYATRLLALREELKDELEIVMRVYFEKPRTTVGWKGLINDPHMDNSFQINDGLRIARKLLLDINDSGLPAAGEFLDMITPQYLADLMSWGAIGARTTESQVHRELASGLSCPVGFKNGTDGTIKVAIDAINAAGAPHCFLSVTKWGHSAIVNTSGNGDCHIILRGGKEPNYSAKHVAEVKEGLNKAGLPAQVMIDFSHANSSKQFKKQMDVCADVCQQIAGGEKAIIGVMVESHLVEGNQSLESGEPLAYGKSITDACIGWEDTDALLRQLANAVKARRG [P0AB91]"
measurement_type = "total protein half-life in vivo"
comparison_operator = "="
experimental_value = 3.98

